Hey, just so you know, these numbers are from the supplement of paper PMC9732359.

- assay-explanation: protein stability index of a GFP-peptide fusion (yeast GPS) (PSI 1-4); higher = more stable; sorted into four equal gates, so the index is relative within each strain
- test-conditions: pdr5∆
Could you please classify the records by protein stability index using these ranges: category 1: < 2; category 2: ≥ 2 and < 3; category 3: ≥ 3

# construct-sequence, answer-label
data = [
    ("KLGIESKQPNSAIRKCV [RPS23A]", "category 3"),
    ("SDVLFEFTKINTPLVGA [YJL039C/NUP192]", "category 1"),
    ("TISSLFVQLCEMGYLIQ [RPC82]", "category 1"),
    ("VVLGVEKRATSPLLESD [PUP2]", "category 2"),
    ("GWKPYYKLFIWLVVPTI [YML031W/NDC1]", "category 1"),
    ("PKNKLVPTLEAKRDYII [FAS1]", "category 1"),
    ("NDEPSHKKIKVAQPDSL [SIR2]", "category 2"),
    ("LVRRLSDIKQGYTQHGG [PRE9]", "category 2"),
    ("DTKSVVGLVMFSQFWYW [RPN2]", "category 2"),
    ("FIRYDVKTPKKTKYILQ [CSN12]", "category 2"),
    ("LLRQKIEQCKHPLHELI [ISW2]", "category 1"),
    ("MSGYDRALSIFSPDGHI [PRE6]", "category 2"),
    ("QGIVRVYSKQATFLLTD [MCD1]", "category 2"),
    ("KKIAQRERRAALTDFER [RPL14A]", "category 3"),
    ("PRMASVFENYVKKTGEN [CDC53]", "category 3"),
    ("DSKNTPNVFDKDSYVRI [YDL088C/ASM4]", "category 3"),
    ("SSSKSMINDENYIINDI [SRB8]", "category 2"),
    ("DRMDVDEDESQNIAQSS [HRT1]", "category 2"),
    ("SLKNTDALLNSTTEHIN [YJL039C/NUP192]", "category 2"),
    ("IGKMYDEYLGSHTDQPA [NNF1]", "category 2"),
    ("KILVLTGAGVSTSLGIP [SIR2]", "category 2"),
    ("LESEAQKKATMSAEEAL [RPC34]", "category 3"),
    ("QLGLQTVIRGNSIISLE [SMX2]", "category 2"),
    ("DNPLRQIPHFNNKILEK [BRR2]", "category 3"),
    ("ATLPYIKQDIPIVIIFR [RPB2]", "category 1"),
    ("FTQPALTLMEKAAFEDL [FAS1]", "category 2"),
    ("DSPASNEDDLTVKLTEI [RPO31]", "category 3"),
    ("LARRTDAPFNKVVLKAL [RPL18A]", "category 1"),
    ("QKYTKEMIDSHIKEASE [SNF2]", "category 2"),
    ("LKVTKKHGAKKVAKRTK [RPL27A]", "category 3"),
    ("KFLNFRPPNGIKNFKSL [SSN2]", "category 1"),
    ("KDSVTECSKDMKEDGLS [SIR4]", "category 3"),
    ("EGWPKFQDTLYKKIPLL [QCR10]", "category 1"),
    ("LVILKPDLNIDRNNSTN [SIN4]", "category 2"),
    ("SLRILAKLSERSNGSVA [YJL039C/NUP192]", "category 2"),
    ("ASGLLRAYLSHSNRCIV [CSN12]", "category 1"),
    ("FTLKQWNRLTISVTDTE [COR1]", "category 1"),
    ("SYNLEYIESKFCPGEIV [YMR129W/POM152]", "category 3"),
    ("IKWENAFVSVYSKNNPN [PRP8]", "category 2"),
    ("PVKSIRARLKGKEGRIR [RPO21]", "category 3"),
    ("LYGPPGTGKTMLVKAVA [RPT3]", "category 1"),
    ("HSFAVLLHERKLLNDLA [NUT1]", "category 2"),
    ("SVSGSPRPSYSSRPNVN [YMR129W/POM152]", "category 2"),
    ("KITIGIQRTTESLILKW [RGR1]", "category 1"),
    ("RVASDTVHEMEEELKKL [SMC4]", "category 3"),
    ("PIPSKPTLFDLAFNYIT [SRP68]", "category 1"),
    ("DNEQNLESDFVTGASQF [PRE2]", "category 3"),
    ("DFKAKYCDSMGRPQRKM [RPB5]", "category 3"),
    ("TAAFTAMICEAKGLIEN [YJR042W/NUP85]", "category 2"),
    ("MAKKEGTPKTDSFIFDG [MED4]", "category 3"),
]

* * *

- assay-explanation: protein stability index of a GFP-peptide fusion (yeast GPS) (PSI 1-4); higher = more stable; sorted into four equal gates, so the index is relative within each strain
- test-conditions: pdr5∆
Measured protein stability index values are reported for all entries that follow.

# construct-sequence, protein stability index
data = [
    ("MEDVKIQKEEEPENNTV [SWI3]", 3.35),
    ("NTQPSASGFGFGGSQPN [YGR119C/NUP57]", 2.72),
    ("GQRPDRATTYEKLTMVF [SIN4]", 1.48),
    ("EEDVYLDPLARVSKDKK [FAS2]", 3.29),
    ("KSMELFYDIRSLLERHI [YJL039C/NUP192]", 2.99),
    ("YKVMHQIRACKDLKHII [PRP8]", 2.41),
    ("HNHDTGCDENDSTVNKS [YDL088C/ASM4]", 3.2),
    ("DVKLLNPIDIKRRFGEL [RPP1]", 2.7),
    ("TLTELKDALSNSILSVR [SRB2]", 3.38),
    ("VEYLTRYVAGVQQRYTQ [PRE6]", 1.89),
    ("KSPSLTAQKYPIYTGDG [YMR153W/NUP53]", 2.19),
    ("EPGHAADQEQAKLIRSA [RPO21]", 3.24),
    ("QLISAVLVSMGSSNKAV [YJL039C/NUP192]", 1.69),
    ("VENELLQVDVDIAGQRD [RRP42]", 2.12),
]

* * *

Measured protein stability index values are reported for all entries that follow.
- assay-explanation: protein stability index of a GFP-peptide fusion (yeast GPS) (PSI 1-4); higher = more stable; sorted into four equal gates, so the index is relative within each strain
- test-conditions: pdr5∆
measurement-label: protein stability index

# construct-sequence, measurement-label, val
measured = [
    ("LDEDDTNDGIERYSDKY [RPC31]", "protein stability index", 3.4),
    ("VYSKQATFLLTDIKDTL [MCD1]", "protein stability index", 2.3),
    ("EKFSEKMLKIWTMAFRT [ECM29]", "protein stability index", 2.09),
    ("ELVFSKGVYLILSEILC [YML103C/NUP188]", "protein stability index", 1.54),
    ("TIFKSGEIDFIKNIGKS [YML103C/NUP188]", "protein stability index", 2.37),
    ("TCRKHTQHKVTQYKAGK [RPL42A]", "protein stability index", 2.85),
    ("EDCVEEFFHLQHYLDTA [QCR6]", "protein stability index", 3.4),
    ("YKPLIEERMGQIENLNE [SMC4]", "protein stability index", 3.34),
    ("QDYYIIGANIYQSPTIF [MED6]", "protein stability index", 2.42),
    ("LVYQYKGAGLSMGTMIC [PRE2]", "protein stability index", 2.3),
    ("VKDEAFDDLLKPVYKGK [RET1]", "protein stability index", 3.32),
    ("IESNKLAGVLYESRNVA [RRP6]", "protein stability index", 3.11),
    ("QDNHHITKVTENLFSKE [YMR129W/POM152]", "protein stability index", 2.8),
    ("EDEDDDDDDDEDEEEEE [QCR6]", "protein stability index", 3.5),
    ("TTTNTDQNNATMGEETA [SNF12]", "protein stability index", 3.37),
    ("SKNAQFICTTFRTDMLQ [SMC3]", "protein stability index", 1.49),
    ("EEYKQLVKDRKFLREVF [RPO21]", "protein stability index", 3.49),
    ("IKNISNRVGLTLDNIDD [ARP9]", "protein stability index", 3.03),
    ("NSAIANEQEEKSEEVKA [RPC37]", "protein stability index", 2.79),
    ("DTDKLPIKNRTSKSFSK [SIN4]", "protein stability index", 2.85),
    ("TEYRGTLVSTDNYFNLQ [SMX3]", "protein stability index", 2.65),
    ("SKRYIPSVNDFVIGVII [RRP40]", "protein stability index", 2.66),
    ("GHIGAYLIVAGVDPTGS [PUP1]", "protein stability index", 1.83),
    ("KLYKTPIPIPAFADRLG [PRE10]", "protein stability index", 1.29),
    ("KIRITLTSTKVKQLENV [RPS20]", "protein stability index", 2.11),
    ("HILLTELLAYQFASPVR [FAS2]", "protein stability index", 1.7),
    ("EIAQANSRNAIRKLVKN [RPL19A]", "protein stability index", 3.01),
    ("LKKLEKFMELERKTLER [SWI3]", "protein stability index", 2.84),
    ("APMDFAIVVGWRAIIKA [FAS1]", "protein stability index", 2.66),
    ("AVNWQDKQGWTPLFHAL [NAS6]", "protein stability index", 2.1),
    ("VTDLSGKETIARVTGGM [RPS14B]", "protein stability index", 3.09),
    ("DVVGTLSRNGKPVMEVT [FAS1]", "protein stability index", 2.81),
    ("ETNLQTFLPPLLLKLAS [ECM29]", "protein stability index", 1.85),
    ("LESTKAETDYVDPKRLA [DSN1]", "protein stability index", 3.19),
    ("INYHQYISKAQNDQWSI [SSN2]", "protein stability index", 2.83),
    ("KAHPNFPIALQWTGGRG [FAS1]", "protein stability index", 2.64),
    ("VKKPQKSKTSTGKERSK [SNM1]", "protein stability index", 3.39),
    ("EIMEERNVEQKLNELDE [NNF1]", "protein stability index", 2.94),
    ("IYKSIFNVVDVGVDQLS [YJL039C/NUP192]", "protein stability index", 2.92),
    ("FKLPKKFPPPTPLLENI [BRR2]", "protein stability index", 2.72),
    ("DLSGADIQAMCTEAGLL [RPT2]", "protein stability index", 3.48),
    ("NDLHHSEKKYAEEDQVQ [RPN3]", "protein stability index", 3.3),
    ("YSDIGGLESQIQEIKES [RPT2]", "protein stability index", 1.97),
    ("IVNVLSKCLNLISDSNI [SWI3]", "protein stability index", 1.77),
    ("PNCPRPNMSICIFGDAF [RPL1A]", "protein stability index", 1.55),
    ("MGENEKPDVTYADVGGL [RPT3]", "protein stability index", 3.41),
    ("NILWAIYNSASKASMQK [YCS4]", "protein stability index", 2.11),
    ("VKYASPNLNMKYRKRQL [FAS2]", "protein stability index", 3.19),
    ("MNFISKEEFIMMVNISV [PCI8]", "protein stability index", 1.25),
    ("PSTNKKLSISNAASQQP [GAL11]", "protein stability index", 2.8),
    ("QEQVQDYVNKTNSHLPA [FAS1]", "protein stability index", 2.44),
    ("ENDTNMNETLNLKVELK [SMC4]", "protein stability index", 3.17),
    ("LQNSERDVELSSDELKV [SMC4]", "protein stability index", 3.12),
    ("YVTKPMVNESDGVTHAL [RPB2]", "protein stability index", 3.28),
    ("FGAKPDENKASATSKPA [YJL041W/NSP1]", "protein stability index", 2.87),
    ("NENKVIIELPNEKFEIE [SRB4]", "protein stability index", 2.86),
    ("ANEEPNTENVESVPTPA [ITC1]", "protein stability index", 2.91),
    ("QGRRLGESIMSEEPTDF [MCD1]", "protein stability index", 3.36),
    ("FEGDSNMLICAPTGSGK [BRR2]", "protein stability index", 1.43),
    ("ETIIFDSELNRALFETK [RRI1]", "protein stability index", 2.66),
]
